Each entry below lists one item and its recorded pKd value.
# target_under_test: T1, recombinant human soluble gpNMB (recombinant human gpNMB-FLAG-His) (human, UniProt Q14956 23-498)
# T1 sequence: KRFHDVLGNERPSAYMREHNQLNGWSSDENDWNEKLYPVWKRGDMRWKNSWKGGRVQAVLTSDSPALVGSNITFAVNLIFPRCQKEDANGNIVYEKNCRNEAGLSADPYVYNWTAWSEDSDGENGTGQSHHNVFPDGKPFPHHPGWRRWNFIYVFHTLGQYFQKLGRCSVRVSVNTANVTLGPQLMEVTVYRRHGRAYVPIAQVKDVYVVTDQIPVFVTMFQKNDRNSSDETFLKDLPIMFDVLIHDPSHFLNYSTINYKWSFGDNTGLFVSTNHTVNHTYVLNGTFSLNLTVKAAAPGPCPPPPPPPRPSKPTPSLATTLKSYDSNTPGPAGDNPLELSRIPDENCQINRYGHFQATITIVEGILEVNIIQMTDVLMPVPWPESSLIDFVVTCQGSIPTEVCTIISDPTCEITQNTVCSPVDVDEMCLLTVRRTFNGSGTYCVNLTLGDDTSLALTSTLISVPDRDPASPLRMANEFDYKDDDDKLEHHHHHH
# assay_explanation: SPR, antibody 100 nM over captured gpNMB-FLAG-His, 25C
pKd: −log10 of the molar value.
reported_metric: pKd

binder: GPN05-1 (antibody, V domains shown, monoclonal with mouse IgG constant regions) VH: QVQLQQSGAELVRPGTSVKVSCKASGYAFSNHLIEWVKQRPGQGLEWIGVINPGSGGTNYIEKFKGKATLTADKSSSTAYMQLSSLTSDDSAVYFCARGANWDVGFAYWGQGTLVTVSA VL: EIQMTQSPSSMSASLGDRITITCQATQDIVKNLNWYQQKPGKPPSFLIYYATELAEGVPSRFSGSGSGSDFSLTISNLESEDFADYYCLQFHEFPRTFGGGTKLEIK
reported_metric: pKd
assay_result: 8.48

binder: GPN18-4 (antibody, V domains shown, monoclonal with mouse IgG constant regions) VH: QVQLQQSGAELTKPGTSVKMSCKASGYTLSSYWMNWIKQRPGQGLEWIGTINPSNNYTAYNLKFKDKAMLTADKSSSTAYMQLSSLTSEDSAVYYCATWGYWGQGTTLTVSS VL: DIVMTQSHKFMSTSVGDRVSITCKASQDVSTAVAWHQQKPGQPPKLLIYSASYRYTGVPDRFTGSGSGTDFTFTISSVQTEDLAIYYCQHHYTTTWTFGGGTKLEIR
reported_metric: pKd
assay_result: 9.49

binder: GPN18-1 (antibody, V domains shown, monoclonal with mouse IgG constant regions) VH: QVTLKESGPGILQPSQTLSLTCSFSGFSLSTSVMGVGWIRQPSGKGLEWLADIWWDDDKDYNPSLKSRLTISKDTSKNQVFLKIASVDTADTATYYCARAYYSNYEYYGMDYWGQGTSVTVSS VL: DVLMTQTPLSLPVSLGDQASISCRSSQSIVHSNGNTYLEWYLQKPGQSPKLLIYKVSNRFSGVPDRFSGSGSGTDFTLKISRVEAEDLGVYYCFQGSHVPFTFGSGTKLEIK
reported_metric: pKd
assay_result: 7.85

binder: GPN18-2 (antibody, V domains shown, monoclonal with mouse IgG constant regions) VH: QVTLKESGPGILQPSQTLSLTCSFSGFSLSTSVMGVGWIRQPSGKGLEWLADIWWDDDKDYNPSLKSRLTISKDTSKNQVFLKIASVDTADTATYYCARTYYSNYEYYGMDYWGQGTSVTVSS VL: DVLMTQTPLSLPVSLGDQASISCRSSQTIILSNGNTYLEWYLQKPGQSPKLLIYKVSNRFSGVPDRFSGSGSGTDFTLKISRVEAEDLGVYYCFQGSHVPFTFGSGTKLEIK
reported_metric: pKd
assay_result: 8.66

binder: GPN18-5 (antibody, V domains shown, monoclonal with mouse IgG constant regions) VH: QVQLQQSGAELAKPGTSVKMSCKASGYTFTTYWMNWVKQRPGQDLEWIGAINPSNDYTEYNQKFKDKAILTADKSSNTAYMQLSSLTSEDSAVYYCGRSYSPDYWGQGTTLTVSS VL: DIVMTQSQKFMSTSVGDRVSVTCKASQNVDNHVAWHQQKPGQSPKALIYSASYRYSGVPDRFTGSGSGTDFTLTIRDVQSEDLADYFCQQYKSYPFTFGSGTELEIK
reported_metric: pKd
assay_result: 8.70
